test system: SNB-19 CNS; assay: NCI tumour cell line growth inhibition, 48 h
Would you kindly list GI50 for each of these compounds?

Need GI50, item COc1cc(OC)cc(-c2cncn2-c2ccc(-c3nc4cc(OC)c(OC)c(OC)c4s3)cc2)c1 19.7 µM

Need GI50, item CCCN1CCN(c2ccc3nc(-c4ccc5nc(-c6ccc(OCC)c(OCC)c6)[nH]c5c4)[nH]c3c2)CC1 0.616 µM

Need GI50, item CC/C=C\C/C=C\C[C@H]1C/C=C2/C(=O)C=C[C@H]2C/C=C\CCC(=O)O1 5.04 µM

Need GI50, item COc1cc(-c2cc(CCC(=O)Nc3ccccc3[N+](=O)[O-])n(-c3ccc([N+](=O)[O-])cc3[N+](=O)[O-])n2)ccc1O > 100 µM

* * *

test system: LXFL 529 NSCLC; assay: NCI tumour cell line growth inhibition, 48 h
readout_type: TGI

Need TGI, item CCOC(=O)/C=C/c1ccccn1 > 100 µM

Need TGI, item COc1cc(C=O)c(-c2cc3c(cc2C=O)OCO3)c(OC)c1OC > 290 µM

Need TGI, item CC(C)(O)[C@H](CCO)O[Si](c1ccccc1)(c1ccccc1)C(C)(C)C 23.8 µM

Need TGI, item COc1ccc(C#CCC(OC2OC(CO)C(O)C(O)C2O)C(O)c2ccc(OC)c(OC)c2)cc1OC (configuration not stated) > 100 µM

Need TGI, item COc1cc(-c2cc(CCC(=O)Nc3ccccc3[N+](=O)[O-])n(-c3ccc([N+](=O)[O-])cc3[N+](=O)[O-])n2)ccc1O > 100 µM

Need TGI, item CC(=O)OCC1OC(Sc2ccccn2)C=CC1OC(C)=O (configuration not stated) > 100 µM

Need TGI, item Cc1cc(NCCCCCCNc2cc(C)nc3ccc(Cl)cc23)c2cc(Cl)ccc2n1 > 100 µM

* * *

tested on: SK-MEL-28 melanoma; assay: NCI tumour cell line growth inhibition, 48 h
Would you kindly list TGI for each of these molecules?

Need TGI, item CN1OC2OC(=O)OC2[C@H]1[C@H]1O[C@H](c2ccccc2)OC1(C)c1cc(OC(=O)c2ccccc2)ccc1OC(=O)c1ccccc1 (stereo partly drawn) > 50 µM

Need TGI, item COC(=O)c1scc(N)c1-n1ccc(=O)[nH]c1=O > 100 µM

Need TGI, item C[C@]12CC[C@H]3[C@@H](C[C@@H]4N=C(c5ccc(O)cc5)S[C@@]45C[C@H](O)CC[C@]35C)[C@@H]1CC[C@@H]2O 66 µM

Need TGI, item COc1ccc(Cn2c(Br)c3c(c2-c2cc(OC)c(OC)c(OC)c2)CCc2sc(NC(C)=O)nc2-3)cc1 > 100 µM

Need TGI, item Cc1n[nH]c(=O)n1N1C(=O)c2ccccc2C1=O > 100 µM

Need TGI, item Nc1nc2c(c3cnccc13)C(c1cccc(Cl)c1)Cc1cnccc1-2 (stereo not drawn) 20.6 µM

Need TGI, item CCNCCCCNCC > 3750 µM

Need TGI, item CN(C(=O)c1cccs1)C(=S)N1CCN(c2ccccc2)CC1 > 100 µM

Need TGI, item Cc1cc2[nH]c3c(C#N)c(-c4ccccc4)c(CN4CCOCC4)c(=O)n3c2cc1C > 100 µM

Need TGI, item O=C([O-])c1ccccc1Nc1ccccc1[O-].[Ni+3].[OH3+].[OH3+].[OH3+] > 100 µM

Need TGI, item COC(=O)c1ccc(C2SCC(=O)N2NC(=O)C(O)c2ccccc2)cc1 (stereo not drawn) > 100 µM

Need TGI, item CC(O[Si](C)(C)C)C1C=CC(C)n2c(=O)n(-c3ccccc3)c(=O)n21 (stereo not drawn) > 100 µM

Need TGI, item O=C(Nc1c(Cl)cc([N+](=O)[O-])cc1Cl)/C(=N\Nc1cccc(Cl)c1)c1c(O)c2ccccc2oc1=O > 100 µM

Need TGI, item O=C1c2cccnc2C(=O)c2c1c(C(=O)OCCN1CCOCC1)c1ccccn21 2.12 µM

Need TGI, item CC1CCC23COC(=O)C2C(O)CCC3C1(C)CC(O)c1ccoc1 (stereo not drawn) > 100 µM

Need TGI, item CC(=O)OC1COC(Nn2c(=O)[nH]c3ccccc3c2=O)C(OC(C)=O)C1OC(C)=O (stereo not drawn) > 100 µM

Need TGI, item CC(C)Oc1ccc(C(=O)N[C@H](CNC(=O)CN(C)C)Cc2ccc(-c3cn4cccc([C@H](C)O)c4n3)cc2)cc1Cl 20.3 µM

Need TGI, item CCNc1ncnc2n[nH]nc12 > 100 µM

Need TGI, item COC1(C)C=NCC(C)(C)NC(=O)C(C)(OC)C=NCC(C)(C)NC1=O (stereo not drawn) > 10 µM

Need TGI, item CCCCCCCCCCCCP(=O)(O)OCC(N)C(=O)O (stereo not drawn) > 100 µM

Need TGI, item CCCCP(CCCC)(CCCC)=C(C(=O)OC)C(C(=O)OC)=C1SC(C(=O)OC)=C(C(=O)OC)S1 29.8 µM

Need TGI, item O=c1cccc(C#CC#C/C=C/CO)o1 10.9 µM

Need TGI, item Cc1nc2cc(N)c(Cl)cc2[nH]1 > 100 µM

Need TGI, item CCOC(=O)NC(=O)c1cn(CCSCCOC(=O)NCCCCCCNC(=O)OCCSCCn2cc(C(=O)NC(=O)OCC)c(=O)[nH]c2=O)c(=O)[nH]c1=O > 100 µM

Need TGI, item COc1cc([C@@H]2c3cc4c(c(O)c3C[C@H]3COC(=O)[C@@H]32)OCO4)cc(OC)c1O > 200 µM

Need TGI, item CC/C=C\C/C=C\C[C@H]1C/C=C2/C(=O)C=C[C@H]2C/C=C\CCC(=O)O1 8.01 µM

Need TGI, item Nc1c(C(=O)Nc2ccccc2)sc2nc3c(cc12)CCCC3 > 100 µM

Need TGI, item COc1cc(/C=C(\C#N)c2ccccn2)cc(Br)c1O > 100 µM

Need TGI, item O=C(c1ccccc1)c1c(CNCc2ccccc2)n(C(=O)c2ccccc2)c2ccccc12 > 100 µM

Need TGI, item O=C1c2ccccc2C(=O)c2c1ccc1c2OCO1 > 100 µM

Need TGI, item O=C(O)CNS(=O)(=O)c1ccc(NC(=O)Nc2ccccc2)cc1 > 100 µM

Need TGI, item CC1Cc2cc(O)ccc2C2[C@@H]1C1CC[C@H](O)[C@@]1(C)C[C@@H]2O[N+](=O)[O-] (stereo partly drawn) 81.8 µM

Need TGI, item O=c1[nH]c(=O)n(C2CC(O)C(CO)O2)cc1C#Cc1cc(F)cc(F)c1 (stereo not drawn) > 100 µM

* * *

tested on: ACHN renal; test: NCI tumour cell line growth inhibition, 48 h
readout_type: TGI

Need TGI, item CC(=O)NC(CCCCNC(=O)N(C)N=O)C(=O)NCc1ccccc1 (stereo unspecified) > 100 µM

Need TGI, item CCCCP(CCCC)(CCCC)=C(C(=O)OC)C(C(=O)OC)=C1SC(C(=O)OC)=C(C(=O)OC)S1 54.3 µM

Need TGI, item Cc1cc(C#N)c(Nc2c(C)cccc2[N+](=O)[O-])s1 > 100 µM

Need TGI, item CCCCCC(/C=N/N)C(O)(C(F)(F)F)C(F)(F)F (stereo unspecified) > 10 µM

Need TGI, item CC(Oc1ccc2cc(C(=O)c3ccccc3)c(=O)oc2c1)C(=O)O (stereo unspecified) > 100 µM

Need TGI, item CN(C)/C(N)=N/C(N)=S > 100 µM

* * *

tested on: LOX IMVI melanoma; experiment: NCI tumour cell line growth inhibition, 48 h
readout_type: TGI

Need TGI, item O=C1C(N2C(=O)c3ccccc3C2=O)CN1C(COCc1ccccc1)c1ccc(OCc2ccccc2)cc1 (configuration not stated) > 100 µM

Need TGI, item Cc1cccc(NC(=S)N/N=C(/c2ccccc2)c2ccccn2)c1 11.5 µM

Need TGI, item CC1(C)O[C@@H]2[C@@H]3OC(=O)C[C@@H]3[C@@H](COCc3ccccc3)[C@@H]2O1 > 100 µM

Need TGI, item CC1Cc2cc(O)ccc2C2[C@@H]1C1CC[C@H](O)[C@@]1(C)C[C@@H]2O[N+](=O)[O-] (some centres not stated) 32.7 µM

Need TGI, item N#CC1=C(c2ccccc2)C(O)(c2ccccc2)NC1=O (configuration not stated) > 100 µM

Need TGI, item COc1cc(OC)nc(Nc2c(C#N)c3nc4ccccc4n3c3ccccc23)n1 > 100 µM

Need TGI, item S=C(Nc1ccccc1)N1N=C2c3ccccc3CC[C@H]2[C@@H]1c1ccccc1 > 100 µM

* * *

tested on: NCI-H23 lung; assay: NCI tumour cell line growth inhibition, 48 h
Would you kindly list TGI for each of these compounds?

Need TGI, item CN1OC2OC(=O)OC2[C@H]1[C@H]1O[C@H](c2ccccc2)OC1(C)c1cc(OC(=O)c2ccccc2)ccc1OC(=O)c1ccccc1 (stereo not given in full) > 50 µM

Need TGI, item CCN(CC)CCOc1ccc(C(=C2CCCCC2)c2ccc(OCCN(CC)CC)cc2)cc1 3.56 µM

Need TGI, item COc1cc(C=O)c(-c2cc3c(cc2C=O)OCO3)c(OC)c1OC 222 µM

Need TGI, item COC(Cc1ccccc1)NC(C)=O (stereo not given) > 100 µM

Need TGI, item COC1(C)C=NCC(C)(C)NC(=O)C(C)(OC)C=NCC(C)(C)NC1=O (stereo not given) > 10 µM

Need TGI, item CC1=C(C(=O)Nc2ccccc2C)C(c2ccc(C3C(C(=O)Nc4ccccc4C)=CNC=C3C(=O)Nc3ccccc3C)cc2)C(C(=O)Nc2ccccc2C)=C(C)N1 36.5 µM

Need TGI, item COC(=O)NN1C(=O)C(=P(c2ccccc2)(c2ccccc2)c2ccccc2)C(C(=O)OC)=C1C > 100 µM

Need TGI, item CCc1n[nH]c(=O)n1NC(=O)/C=C\C(=O)O > 100 µM

Need TGI, item COC(=O)C(Cc1nc2ccccc2[nH]c1=O)C(=O)C(=O)Nc1ccc(OC)cc1[N+](=O)[O-] (stereo not given) > 100 µM

Need TGI, item COc1ccc(-c2coc3cc(OC)cc(O)c3c2=O)cc1 > 100 µM

Need TGI, item Cc1cc2[nH]c3c(C#N)c(-c4ccccc4)c(CN4CCOCC4)c(=O)n3c2cc1C > 100 µM

Need TGI, item N#CC(c1cc(Cl)ncn1)c1nc2ccccc2s1 (stereo not given) 19.5 µM

Need TGI, item CCN(CC)CC(O)C1CCC(c2ccccc2)CC1 (stereo not given) > 100 µM

Need TGI, item Oc1cc2ccccc2cc1-c1n[nH]c(=S)n1-c1ccc(Cl)cc1 60.3 µM

Need TGI, item O=C(CN1CCN(c2ccc(Cl)cc2)CC1)N1CCN(c2nnc(-c3ccccc3)c(-c3ccccc3)n2)CC1 > 100 µM

Need TGI, item CC[C@@]1(O)C(=O)OCc2c1cc1n(c2=O)Cc2c-1nc1ccccc1c2/C=N/OC(C)(C)C 0.158 µM

Need TGI, item CCOC(=O)NC(=O)c1cn(CCSCCOC(=O)NCCCCCCNC(=O)OCCSCCn2cc(C(=O)NC(=O)OCC)c(=O)[nH]c2=O)c(=O)[nH]c1=O > 100 µM

Need TGI, item O=C(O)C(F)(OC(F)(F)C(F)(OC(F)(F)C(F)(F)C(F)(F)F)C(F)(F)F)C(F)(F)F (stereo not given) > 100 µM

Need TGI, item CC(C)(C)NC1C2CCC(C)(C1O)C2(C)C (stereo not given) > 100 µM

Need TGI, item Oc1cc2c(cc1O)-c1[nH]ncc1CC2 > 100 µM

Need TGI, item O=C1C(Cl)=C(Nc2cccc(O)c2)C(=O)N1c1cccc(Cl)c1Cl 34.6 µM

Need TGI, item O=c1[nH]c(=O)n(C2CC(O)C(CO)O2)cc1C#Cc1cc(F)cc(F)c1 (stereo not given) > 100 µM

Need TGI, item CC1=C2C(O)C(C(C)C(=O)NC(C)C)CCC2(C)C=CC1=O (stereo not given) > 100 µM

Need TGI, item COc1ccc(/C(C)=N/NC(N)=S)c(OC)c1 > 100 µM

Need TGI, item CN(C)/C(N)=N/C(N)=S > 100 µM

Need TGI, item CCN(CC)c1nc(N(C)C)c2cc(OC)ccc2n1 > 100 µM

Need TGI, item Cn1cnc([N+](=O)[O-])c1Sc1nc(N)nc2c1ncn2Cc1ccccc1 36.9 µM

Need TGI, item O=C1O[C@H]2[C@@H]3OC(=O)c4cc(O)c(O)c(O)c4-c4c(cc(O)c(O)c4O)C(=O)OC[C@H]2O[C@@H](OC(=O)c2cc(O)c(O)c(O)c2)[C@@H]3OC(=O)c2cc(O)c(O)c3c2[C@@H]2C1=CC(=O)C(O)(O)C2(O)O3 (stereo not given in full) > 100 µM

Need TGI, item CCN1CCN(C(=O)[C@]23CCC(C)(C)C[C@@H]2C2=CC[C@@H]4[C@@]5(C)C/C(=C/c6cccnc6)C(=O)C(C)(C)[C@@H]5CC[C@@]4(C)[C@]2(C)CC3)CC1 5.85 µM

Need TGI, item COc1cc(C2C(C#N)=C(N)Oc3cc(O)ccc32)cc(OC)c1OC (stereo not given) > 100 µM

Need TGI, item NC[C@@](O)(c1ccc(Cl)cc1)c1ccc(-c2cn[nH]c2)cc1 > 100 µM

Need TGI, item COc1ccc(CNc2nc(NCc3ccc(OC)cc3)c3n[nH]c(C(C)C)c3n2)cc1 18.3 µM

Need TGI, item O=C(O)c1cc(Sc2ccc([N+](=O)[O-])c(C(=O)O)c2)ccc1[N+](=O)[O-] > 100 µM

Need TGI, item CC1(C)OC(=S)N(c2ccccc2)C12C=Cc1cc3ccccc3cc1O2 (stereo not given) > 100 µM

Need TGI, item CCn1cnc2c(NC(C)=O)ncnc21 > 100 µM

Need TGI, item COc1cc(OC)nc(Nc2c(C#N)c3nc4ccccc4n3c3ccccc23)n1 > 100 µM

Need TGI, item CCNCCCCNCC > 3750 µM

Need TGI, item O=C(Nc1ccc(Br)cc1F)c1cc(Br)ccc1O 3.62 µM

Need TGI, item S=C1SC(c2ccc(Cl)cc2)(c2ccc(Cl)cc2)c2ccccc21 > 100 µM

Need TGI, item CC([O-])C(=O)[O-].NCC1CCC1CN.[Pt+4] (stereo not given) > 10 µM
